Data credit: PubChem BioAssay (NCI)

Tested on: A549 NSCLC
experiment.description: NCI tumour cell line growth inhibition, 48 h; in the data active means GI50 below about 0.43 µM; inactive means the rest
Possible outcomes: active, inactive

compound	target.or.test.system	label
C=C(CN1CCc2ccccc2C1)c1ccc(C(=O)Nc2ccc(N)cc2)cc1	A549 NSCLC	inactive
COc1cc(/C=C/C(=O)c2ccc(Cl)cc2)ccc1OS(=O)(=O)c1ccc(C)cc1	A549 NSCLC	inactive
O=C(Nc1ncc(Cc2ccccc2Cl)s1)c1ccc2c(c1)OCCO2	A549 NSCLC	inactive
O=C([CH-]C(=O)c1ccccc1)c1ccccc1.O=C([CH-]C(=O)c1ccccc1)c1ccccc1.[Nd+3].[OH-].[OH3+]	A549 NSCLC	inactive
COc1ccc(-c2nc(-c3cn(C)c4ncccc34)cs2)cc1	A549 NSCLC	inactive
S=C(Nc1ccc(Cl)cc1)Nc1ccc(Cl)cc1 (tested in a mixture with another compound)	A549 NSCLC	inactive
O=c1cc(-c2ccccc2)nc2n1CCN2Cc1ccccc1	A549 NSCLC	inactive
Cc1[nH]c(/C=C2\C(=O)Nc3ccc(F)cc32)c(C)c1C(=O)NC[C@H](O)CN1CCOCC1	A549 NSCLC	inactive
O=[N+]([O-])/C=C/c1c[nH]c2ccccc12	A549 NSCLC	inactive
Cc1ccc2c(N)c(C(=O)N[C@H]3CCc4cc(N5CC6CCC(C5)N6)ccc4C3)sc2n1	A549 NSCLC	active

---

Test system: MCF7 breast
experiment.description: NCI tumour cell line growth inhibition, 48 h; in the data active = GI50 below about 0.43 µM; inactive = the rest
Possible outcomes: Y = active, N = inactive

compound	label
O=c1cc(-c2ccccc2)nc2n1CCN2Cc1ccccc1	N
CCSc1nc(N=Cc2cccs2)c2cn[nH]c2n1	N
O=C(Oc1ccc(CCl)cc1)c1ccccc1	Y
CCN(CC)CCCCCCCNc1c2ccc(Cl)cc2nc2ccc(OC)cc12	Y
O=C(NC(=S)Nc1ccc(Cl)cc1)c1ccccc1	N
S=C(Nc1ccc(Cl)cc1)Nc1ccc(Cl)cc1 (tested in a mixture with another compound)	N
COC(=O)/C(=C\c1c(C)[nH]c2ccccc12)S(=O)(=O)c1ccccc1	N
Cc1ccc2c(N)c(C(=O)N[C@H]3CCc4cc(N5CC6CCC(C5)N6)ccc4C3)sc2n1	Y
COc1nc(C)cc2c(=O)n(-c3ccccc3)n(CCCN3CCN(c4ccc(Cl)cc4)CC3)c(=O)c12	N
CC[N+](CC)(CC)CCCn1c2c(c3ccccc3c1=O)C(=O)c1ccccc1-2	N

---

TGI values by entry
Test system: DMS 273 small cell lung
experiment.description: NCI tumour cell line growth inhibition, 48 h

compound	TGI
CCOC(=O)C(C)c1cc(C2(C)OCCO2)c(C)o1 (stereo unspecified)	> 100 µM
CC(O)C(O)C(N)CC=O (stereo unspecified)	> 500 µM
CC(=O)/C=C/c1ccc(C2CC(C)=Nc3c(ccc4c3C(=O)c3ccccc3C4=O)N2)cc1 (stereo unspecified)	> 100 µM
CCOC(=O)CC1=CSC2=NCCN12	> 100 µM
COc1ccc(C2C(Cl)C(=O)N2NC(=O)Cc2ccccc2)cc1 (stereo unspecified)	> 100 µM
CC1=Cc2cc3[n-]c(cc4nc(cc5[n-]c(cc1n2)cc5C)C(C)=C4CCC(=O)O)c(CCC(=O)O)c3C.[Pd+2]	32.7 µM
[N-]=[N+]=NC1C(Br)C(=O)NC(=O)N1[C@H]1C[C@H](O)[C@@H](CO)O1 (stereo partly specified)	> 100 µM
COc1cc2[nH]c(-c3cccc(N(C)C)c3)cc(=O)c2cc1OC	> 100 µM
CCOC(CN=c1nc(N(C)C)ss1)OCC	> 67.9 µM
CN(c1ccccc1)C(c1ccccc1)C(O)c1ccccc1 (stereo unspecified)	34 µM
Cc1cc2oc(=O)[nH]c(=S)c2c(C)c1C	> 100 µM
